Ref: patent US20240197596A1

Experiment: Skin permeation study, Franz diffusion cell
Assay type: in vitro ADME, porcine
Settings: pig; end of 8 h; read-out: Total recovery (mean percentage parent compound recovery)
assay.metric: recovery at 8 h, 1 % w/v (%)

{"molecule": "COCOc1cc(N)ccc1N", "recovery at 8 h, 1 % w/v / %": 98}
{"molecule": "COCCOc1cc(N)ccc1N", "recovery at 8 h, 1 % w/v / %": 97}
{"molecule": "COC(COc1cc(N)ccc1N)OC", "recovery at 8 h, 1 % w/v / %": 96}
{"molecule": "COCCOCCOc1cc(N)ccc1N", "recovery at 8 h, 1 % w/v / %": 95}
{"molecule": "Nc1ccc(N)c(OCC2CO2)c1 (stereo not drawn)", "recovery at 8 h, 1 % w/v / %": 99}
{"molecule": "CNCCOc1cc(N)ccc1N", "recovery at 8 h, 1 % w/v / %": 93.1}
